target: human recombinant TAK1-TAB1 Kinase (TAK1 (1-303) and TAB1 (437-end)) (Homo sapiens (Human)); assay: TAK1 biochemical ADP-Glo kinase assay; details: 1 mM ATP, MBP substrate; read-out: TAK1 Mean IC50 (nM) @ 1 mM ATP

{"Molecule": "CC1CCCCNC(=O)c2cccc(c2)C(=O)/N=C2\\Nc3cccc(N4CCN(C5COC5)C4=O)c3N21 (single isomer, unassigned) [Example 143]", "IC50 (nM)": 14}
{"Molecule": "CC1CCCCNC(=O)c2cccc(c2)C(=O)/N=C2\\Nc3cccc(-c4ncnn4C(F)F)c3N21 (single isomer, unassigned) [Example 139]", "IC50 (nM)": 17}
{"Molecule": "CC1CCCCNC(=O)c2cccc(c2)C(=O)/N=C2\\Nc3cccc(C(=O)N(C)CCF)c3N21 (single isomer, unassigned) [Example 70]", "IC50 (nM)": 6}

====

biological target: human recombinant TAK1-TAB1 Kinase (TAK1 (1-303) and TAB1 (437-end)) (Homo sapiens (Human), UniProt O43318); assay: TAK1 biochemical ADP-Glo kinase assay; details: 10 μM ATP, MBP substrate; read-out: TAK1 Mean IC50 (nM) @ 10 μM ATP
Sequence (O43318 other isoform, or with tags, fused parts or gaps): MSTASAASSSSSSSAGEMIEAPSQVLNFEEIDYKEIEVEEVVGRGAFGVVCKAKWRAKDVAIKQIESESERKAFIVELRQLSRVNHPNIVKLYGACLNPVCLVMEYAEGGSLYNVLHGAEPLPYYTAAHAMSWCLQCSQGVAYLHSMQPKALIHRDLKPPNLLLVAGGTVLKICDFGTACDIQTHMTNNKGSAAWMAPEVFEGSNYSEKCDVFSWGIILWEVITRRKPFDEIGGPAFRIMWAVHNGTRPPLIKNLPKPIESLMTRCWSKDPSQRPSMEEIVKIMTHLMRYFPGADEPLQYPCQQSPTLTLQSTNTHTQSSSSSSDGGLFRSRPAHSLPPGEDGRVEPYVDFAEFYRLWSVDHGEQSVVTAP
Assay Endpoint: IC50 (nM)

{"Compound": "[2H]C([2H])([2H])N(C(=O)c1cccc2c1N1/C(=N/C(=O)c3cccc(c3)C(=O)NCCCC[C@H]1C)N2)C([2H])([2H])[2H]", "Numeric Value": 3}
{"Compound": "CC1CCCNC(=O)c2cccc(c2)C(=O)Nc2nc3cccc(C(=O)N(C)C)c3n2C1 (stereo not shown) [Example 52]", "Numeric Value": 63}
{"Compound": "C[C@H]1CCCCNC(=O)c2cccc(c2)C(=O)/N=C2\\Nc3cc(C(C)(C)O)cc(C(=O)N(C)C)c3N21", "Numeric Value": 4}
{"Compound": "CN(C)[C@H]1CCN(C(=O)c2cccc3c2N2CCCCCNC(=O)c4cccc(c4)C(=O)/N=C/2N3)C1", "Numeric Value": 7}
{"Compound": "C[C@H]1CCCCNC(=O)c2cccc(c2)C(=O)/N=C2\\Nc3ccnc(C(=O)N(C)C)c3N21", "Numeric Value": 7}
{"Compound": "C[C@H]1CN(C)CCN1C(=O)c1cccc2c1N1CCCCCNC(=O)c3cccc(c3)C(=O)/N=C/1N2", "Numeric Value": 4}
{"Compound": "CC1CCCCNC(=O)c2cccc(c2)C(=O)Nc2nc3cccc(-c4ccc[nH]c4=O)c3n21 (single isomer, unassigned) [Example 36]", "Numeric Value": 6}

====

Molecular target: human recombinant TAK1-TAB1 Kinase (TAK1 (1-303) and TAB1 (437-end)) (Homo sapiens (Human), UniProt O43318)
Experiment: TAK1 biochemical ADP-Glo kinase assay
Details: 1 mM ATP, MBP substrate; read-out: TAK1 Mean IC50 (nM) @ 1 mM ATP
Procedure: The usefulness of the example compounds of the invention as TAK1 inhibitors was evaluated in a biochemical ADP-Glo kinase assay. Assay kits from Promega Corporation V4089 were used according to manufacturer's instructions and adapted as outlined here. […] One μl of compound solution in 5% DMSO was added to each well in a 384 well microtiter plate (OptiPlate #6007290). […] The plate was incubated for 30 minutes at room temperature in dark before reading luminescence on an Envision (PerkinElmer) reader. […]
Recorded IC50 for the following compounds
Assay Endpoint: IC50 (nM)

{"Compound": "C[C@H]1CCCCNC(=O)c2cccc(c2)C(=O)/N=C2\\Nc3cccc(C(=O)N4CC5(COC5)C4)c3N21", "Units Of Measure": "nM", "Numeric Value": 10}
{"Compound": "CC1CCCCNC(=O)c2cccc(c2)C(=O)Nc2nc3cccc(C(=O)N(C)C)c3n21 (single isomer, unassigned) [Example 31]", "Units Of Measure": "nM", "Numeric Value": 14}
{"Compound": "C[C@H]1CCCCNC(=O)c2cccc(c2)C(=O)/N=C2\\Nc3cc(C(C)(C)O)cc(C(=O)N(C)C)c3N21", "Units Of Measure": "nM", "Numeric Value": 11}
{"Compound": "Cc1nnc(-c2cccc3c2N2/C(=N/C(=O)c4cccc(c4)C(=O)NCCCCC2C)N3)o1 (single isomer, unassigned) [Example 132]", "Units Of Measure": "nM", "Numeric Value": 10}
{"Compound": "C[C@H]1CCCCNC(=O)c2cccc(c2)C(=O)/N=C2\\Nc3cccc(C(=O)N4CC(OC5CC5)C4)c3N21", "Units Of Measure": "nM", "Numeric Value": 4}
{"Compound": "CC1CCCCNC(=O)c2cccc(c2)C(=O)Nc2nc3cccc(C(=O)N(C)C)c3n21 (single isomer, unassigned) [Example 32]", "Units Of Measure": "nM", "Numeric Value": 14}
{"Compound": "C[C@H]1CCCCNC(=O)c2cccc(c2)C(=O)/N=C2\\Nc3cccc(C(=O)N4CC5(C4)CC(F)(F)CO5)c3N21", "Units Of Measure": "nM", "Numeric Value": 4}

====

test: Solubility assay in phosphate buffer; settings: phosphate buffer, pH 7.4, aqueous buffer, kinetic from dmso stock, Solubility (μM), phosphate buffer 100 mM, pH 7.4, room temperature, 20-24 h, LC-UV
Assay Endpoint: log10 of solubility (log10 of the value in µM)

{"Compound": "CC(C)(C)OC(=O)N1CCN(C(=O)c2ccc3c(c2)nc2n3CCCCCNC(=O)c3cccc(c3)C(=O)N2)CC1", "log10 of solubility": -0.70}
{"Compound": "O=C1NCCCCCn2c(nc3cc(F)ccc32)NC(=O)c2cccc1c2", "log10 of solubility": -0.70}
{"Compound": "C[C@H]1CCCCNC(=O)c2cccc(c2)C(=O)Nc2nc3ccc(Cl)c(C(=O)N(C)C)c3n21 (single isomer, unassigned)", "log10 of solubility": 0.95}
{"Compound": "C[C@H]1CCCCNC(=O)c2cccc(c2)C(=O)/N=C2\\Nc3cc(C(C)(C)O)cc(C(=O)N(C)C)c3N21", "log10 of solubility": 1.95}
{"Compound": "C[C@@H]1CCCCNC(=O)c2cccc(c2)C(=O)Nc2nc3cccc(S(=O)(=O)N(C)C)c3n21", "log10 of solubility": 1.00}
{"Compound": "CN1CCN(Cc2ccc3c(c2)nc2n3CCCCCNC(=O)c3cccc(c3)C(=O)N2)CC1", "log10 of solubility": 1.50}
{"Compound": "C[C@@H]1CCCCNC(=O)c2cccc(c2)C(=O)Nc2nc3cccc(-c4cn(C)nn4)c3n21", "log10 of solubility": 0.72}
{"Compound": "CC(=O)Nc1cccc2c1N1/C(=N/C(=O)c3cccc(c3)C(=O)NCCCCC1C)N2 (centres unmarked)", "log10 of solubility": 1.87}
{"Compound": "CC1CCCCNC(=O)c2cccc(c2)C(=O)/N=C2\\Nc3cccc(C(=O)N4CC[C@H](F)C4)c3N21 (single isomer, unassigned)", "log10 of solubility": 1.94}
{"Compound": "O=C1NCCCCCn2c(nc3cc(C(=O)N4CCN(C5COC5)CC4)ccc32)NC(=O)c2cccc1c2", "log10 of solubility": 1.49}
{"Compound": "CC1CCCCNC(=O)c2cccc(c2)C(=O)/N=C2\\Nc3cccc(C(=O)N4CCC4)c3N21 (centres unmarked)", "log10 of solubility": 1.20}
{"Compound": "CC1CCCCNC(=O)c2cccc(c2)C(=O)Nc2nc3cccc(C(=O)N(C)C)c3n21 (single isomer, unassigned)", "log10 of solubility": 1.98}
{"Compound": "CC1CCCCNC(=O)c2cccc(c2)C(=O)/N=C2\\Nc3cccc(C(=O)N4CCOC[C@H]4C)c3N21 (single isomer, unassigned)", "log10 of solubility": 1.95}
{"Compound": "O=C1NCCCCCn2c(nc3ccccc32)NC(=O)c2cccc1c2", "log10 of solubility": -0.30}
{"Compound": "C[C@H]1CCCCNC(=O)c2cccc(c2)C(=O)Nc2nc3cccc(-c4ncn(C)n4)c3n21", "log10 of solubility": 1.18}
{"Compound": "O=C1NCCCCCCn2c(nc3ccccc32)NC(=O)c2cccc1c2", "log10 of solubility": 0.08}
{"Compound": "CC1CCCCNC(=O)c2cccc(c2)C(=O)/N=C2\\Nc3cccc(C(=O)N4CCOC[C@@H]4C)c3N21 (single isomer, unassigned)", "log10 of solubility": 1.93}
{"Compound": "C[C@@H]1CCCCNC(=O)c2cccc(c2)C(=O)/N=C2\\Nc3cccc(C(=O)N4C[C@H]5C[C@@H]4CN5C)c3N21", "log10 of solubility": 1.98}
{"Compound": "CN1CCN(Cc2cc(C(=O)N(C)C)c3c(c2)nc2n3CCCCCNC(=O)c3cccc(c3)C(=O)N2)CC1", "log10 of solubility": 1.79}
{"Compound": "C[C@H]1CCCCn2c(nc3cccc(C(=O)N(C)C)c32)NC(=O)c2cccc(c2)C(=O)N1", "log10 of solubility": 1.41}
{"Compound": "CC1CCCCNC(=O)c2cccc(c2)C(=O)/N=C2\\Nc3cccc(-c4nccn4C)c3N21 (single isomer, unassigned)", "log10 of solubility": 1.04}
{"Compound": "O=C1/N=C2\\Nc3ccc(C(=O)N4CCNCC4)cc3N2CCCCCNC(=O)c2cccc1c2", "log10 of solubility": 1.92}
{"Compound": "CN1C[C@@H]2C[C@H]1CN2C(=O)c1cccc2c1N1CCCCCNC(=O)c3cccc(c3)C(=O)/N=C/1N2", "log10 of solubility": 1.95}
{"Compound": "CN1C[C@H]2C[C@@H]1CN2C(=O)c1cccc2c1N1CCCCCNC(=O)c3cccc(c3)C(=O)/N=C/1N2", "log10 of solubility": 1.91}
{"Compound": "CN1CCN(C(=O)c2ccc3c(c2)nc2n3CCCCCNC(=O)c3cccc(c3)C(=O)N2)CC1", "log10 of solubility": 0.68}
{"Compound": "C[C@@H]1CCCCNC(=O)c2cccc(c2)C(=O)Nc2nc3cc(C(C)(C)O)cc(C(=O)N(C)C)c3n21", "log10 of solubility": 1.97}
{"Compound": "O=C1NCCCCCn2c(nc3cc(C(=O)N4CCNCC4)ccc32)NC(=O)c2cccc1c2", "log10 of solubility": 1.90}
{"Compound": "CCCn1c(NC(=O)c2cccc(C(N)=O)c2)nc2ccccc21 [takinib, reference compound]", "log10 of solubility": -0.05}
{"Compound": "O=C1NCCCCCn2c(nc3cccc(C(=O)N4CCNCC4)c32)NC(=O)c2cccc1c2", "log10 of solubility": 1.97}
